- Test system: Mus musculus
- procedure details: Antihypoxic effect by the survival time (SVT) in mice at a dose of 30 mg/kg administered subcutaneously in mice
- Type: functional
- Parameters: unit: % of control
- experimental conditions: route subcutaneous
Please provide measured SVT for the entries that follow.

Guide cases for SVT, answers given:
molecule: Cc1cc(I)c(O)c2c1CCC2N.Cl (stereo not given)
tested system: Mus musculus
SVT: 184.6
//
molecule: CNC1CCc2c(C)cc(C)c(O)c21.Cl (stereo not given)
tested system: Mus musculus
SVT: 177.5
//
molecule: Cc1cc(Br)c(O)c2c1CCC2N.Cl (stereo not given)
tested system: Mus musculus
SVT: 308
//
molecule: CCCc1cc(CC)c2c(c1O)C(N)CC2.Cl (stereo not given)
tested system: Mus musculus
SVT: 194.3

Answer for every listed entry: what is its SVT? The entries follow.
1. Cc1cc([N+](=O)[O-])c(O)c2c1CCC2N.Cl (stereo not given)
2. Cl.NC1CCc2c(Cl)cc(Cl)c(O)c21 (stereo not given)
3. CCCc1ccc2c(c1O)C(N)CC2.Cl (stereo not given)
4. CC(=O)Nc1cc(C)c2c(c1O)C(N)CC2.Cl (stereo not given)
5. Cc1cc(C)c2c(c1O)C(N)CC2.Cl (stereo not given)
6. CCCc1cc(C)c2c(c1O)C(N)CC2.Cl (stereo not given)

A)
[189.7, 65.8, 138, 46.8, 303.4, 244.6]

# map each molecule to its SVT
1. Cc1cc(CN)c(O)c2c1CCC2N.Cl (stereo not given)
2. Cc1ccc(O)c2c1CCC2N.Cl (stereo not given)
3. Cc1cc(C)c2c(c1O)C(N)C(C)(C)C2.Cl (stereo not given)
4. CCC(C)c1cc(C)c2c(c1O)C(N)CC2.Cl (stereo not given)
5. Cc1cc(CC(C)C)c(O)c2c1CCC2N.Cl (stereo not given)

A)
1: 74.3; 2: 157.8; 3: 298.1; 4: 276.5; 5: 281.4

---

- Tested on: Mus musculus
- procedure details: Time of recovery of righting reflux (RRT) in seconds was measured after administration of 100 mg/kg orally in mice for the promotional effect on recovery from coma
- Format: functional
- experimental conditions: route oral
Label scheme for RRT: lower than 50 s is Criterion not met, 50 s and above is Criterion met.

compound: Cc1cc(C)c2c(c1O)C(N)C(c1ccccc1)C2.Cl (stereo not drawn)
assigned category: Criterion not met
--
compound: Cc1ccc(O)c2c1CCC2N.Cl (stereo not drawn)
assigned category: Criterion not met
--
compound: Cc1cc(Br)c(O)c2c1CCC2N.Cl (stereo not drawn)
assigned category: Criterion met
--
compound: Cc1cc(C)c2c(c1O)C(N)C(C)(C)C2.Cl (stereo not drawn)
assigned category: Criterion not met
--
compound: Cc1cc(C(C)(C)C)c(O)c2c1CCC2N.Cl (stereo not drawn)
assigned category: Criterion met
--
compound: CCC(C)c1cc(C)c2c(c1O)C(N)CC2.Cl (stereo not drawn)
assigned category: Criterion not met
--
compound: Cc1cc(C)c2c(c1O)C(N)C(C)(c1ccccc1)C2.Cl (stereo not drawn)
assigned category: Criterion not met
--
compound: CCc1cc(C)c2c(c1O)C(N)C(c1ccccc1)C2.Cl (stereo not drawn)
assigned category: Criterion met

Q) Test whether the compound CCCc1cc(CC)c2c(c1O)C(N)CC2.Cl (stereo not drawn) records RRT of 50 s or higher.
A) Criterion met

Q) Say whether Cc1cc(C(C)(C)C)c(O)c(C(C)(C)C)c1 [BUTYLATED HYDROXYTOLUENE] shows RRT of 50 s or more.
A) Criterion met

Q) Dear colleague, could you confirm whether Cc1cc(CC(C)C)c(O)c2c1CCC2N.Cl (stereo not drawn) has RRT at or above 50 s?
A) Criterion met

Q) Record Cc1cc(C)c2c(c1O)C(N)C(c1ccccc1Cl)C2.Cl (stereo not drawn) ; criterion: RRT no lower than 50 s. Met?
A) Criterion not met

Q) Please tell me: is the compound Cl.NC1CCc2cccc(O)c21 (stereo in doubt; 11a) at or over 50 s in terms of RRT?
A) Criterion met

Q) Dear colleague, could you confirm whether Cc1cc(I)c(O)c2c1CCC2N.Cl (stereo not drawn) has RRT at or above 50 s?
A) Criterion met

Q) Identify whether the reported RRT of the following compound is 50 s or greater: COc1c(C)cc(C)c2c1C(N)C(C)(c1ccccc1)C2.Cl (stereo not drawn)
A) Criterion not met

Q) Is reported RRT greater than or equal to 50 s here: CNC1CCc2c(C)cc(C)c(O)c21.Cl (stereo not drawn)
A) Criterion met

Q) Does COc1c(C)cc(C)c2c1C(N)C(C)(C)C2.Cl (stereo not drawn) have a reported RRT of at least 50 s?
A) Criterion not met

Q) API: above_or_equal(metric=RRT, cutoff=50 s) for item CC(C)(C)c1cc(C(C)(C)C)c2c(c1O)C(N)CC2.Cl (stereo not drawn)
A) Criterion met

Q) Has Cc1cc(C)c2c(c1O)C(N)C(Cc1ccccc1)C2.Cl (stereo not drawn) a recorded RRT greater than or equal to 50 s?
A) Criterion not met

Q) Has Cc1cc(C)c2c(c1O)C(N)C(C)(Cc1ccccc1)C2.Cl (stereo not drawn) a recorded RRT greater than or equal to 50 s?
A) Criterion not met

Q) Check this compound for RRT at or above 50 s: Cc1cc(C)c2c(c1O)C(N)C(C)(Cc1ccccc1)C2.Cl.O (stereo not drawn)
A) Criterion not met

---

- Test system: Mus musculus
- procedure details: Time of recovery of spontaneous movement (SMT) in seconds was measured after administration of 100 mg/kg orally in mice for the promotional effect on recovery from coma
- Format: functional
- experimental conditions: route oral
endpoint: SMT
Could you write the number and then its unit?

Solved entries:
compound: Cc1cc(C)c2c(c1O)C(N)C(C)(c1ccccc1)C2.Cl (centres undefined)
endpoint: SMT
result: 34.7 s

compound: Cc1cc(CC(C)C)c(O)c2c1CCC2N.Cl (centres undefined)
endpoint: SMT
result: 76.1 s

compound: Cc1ccc(O)c2c1CCC2N.Cl (centres undefined)
endpoint: SMT
result: 42.6 s

Return reported SMT values for all items listed beneath this line.
1. Cc1cc(C)c2c(c1O)C(N)C(C)C2.Cl (centres undefined)
2. Cc1cc(C)c2c(c1O)C(N)C(C)(Cc1ccccc1)C2.Cl (centres undefined)
3. Cc1cc(C(C)(C)C)c(O)c2c1CCC2N.Cl (centres undefined)
4. Cc1cc(CN)c(O)c2c1CCC2N.Cl (centres undefined)
5. Cc1cc(C)c2c(c1O)C(N)C(Cc1ccccc1)C2.Cl (centres undefined)
6. Cc1cc(Br)c(O)c2c1CCC2N.Cl (centres undefined)
7. Cc1cc(C)c2c(c1O)C(N)C(C)(C)C2.Cl (centres undefined)
8. Cl.NC1CCc2cccc(O)c21 (stereo in doubt; 11a)

A)
71 s
32.6 s
113.5 s
79.3 s
38.6 s
83.4 s
53.9 s
99.1 s

Give SMT for each of the items listed below.
1. COc1c(C)cc(C)c2c1C(N)C(C)(c1ccccc1)C2.Cl (centres undefined)
2. CCCc1ccc2c(c1O)C(N)CC2.Cl (centres undefined)
3. Cc1cc(C(C)(C)C)c(O)c(C(C)(C)C)c1 [BUTYLATED HYDROXYTOLUENE]
4. Cc1cc(I)c(O)c2c1CCC2N.Cl (centres undefined)

A)
["23.9 s", "79.5 s", "80.9 s", "92.3 s"]

Each of the following entries comes with a recorded value; kindly state SMT for each.
1. CC(C)(C)c1cc(C(C)(C)C)c2c(c1O)C(N)CC2.Cl (centres undefined)
2. Cc1cc(C)c2c(c1O)C(N)C(C)(Cc1ccccc1)C2.Cl.O (centres undefined)
3. Cc1cc(C)c2c(c1O)C(N)CC2.Cl (centres undefined)
4. CNC1CCc2c(C)cc(C)c(O)c21.Cl (centres undefined)

A)
1. 157.6 s
2. 28.8 s
3. 61.4 s
4. 55.8 s

---

- Tested on: Mus musculus
- procedure details: Time of recovery of righting reflux (RRT) in seconds was measured after administration of 100 mg/kg orally in mice for the promotional effect on recovery from coma
- Assay type: functional
- experimental conditions: route oral
endpoint: RRT (s)
Numbers only, in s.

compound: Cc1cc(C)c2c(c1O)C(N)CC2.Cl (configuration not stated)
tested system: Mus musculus
RRT (s): 51.4

For each of the compounds below, note its RRT.
1. Cc1cc(C)c2c(c1O)C(N)C(C)C2.Cl (configuration not stated)
2. Cc1ccccc1C1Cc2c(C)cc(C)c(O)c2C1N.Cl (configuration not stated)
3. CCCc1ccc2c(c1O)C(N)CC2.Cl (configuration not stated)
4. CCCCNC1CCc2c(C)cc(C)c(O)c21.Cl (configuration not stated)

A)
1. 79.1
2. 44.4
3. 70.5
4. 55.3

For every item in the list below, what is its measured RRT?
1. CN(C)CCCN1c2ccccc2CCc2ccccc21.Cl [IMIPRAMINE HYDROCHLORIDE]
2. Cc1cc(CN)c(O)c2c1CCC2N.Cl (configuration not stated)

A)
113.4
69.9
